# System: tobacco hornworms (Manducca sexta)
# Set-up: species or system Manduca sexta
# test context: in vivo
So I've got a bunch of compounds here, and I need their % leaf remaining values.

Known % leaf remaining results, listed for orientation:
Ask | Missing value: % leaf remaining, tobacco hornworms (Manducca sexta), entry CNCCCN1c2ccccc2CCc2ccccc21 . Fill in?
Reply | ~80%

Ask | Would you kindly repeat that for CN1CCC(=C2c3ccccc3C=Cc3ccccc32)CC1 ?
Reply | ~55%

Ask | Query CCN(CCCl)Cc1ccccc1Br next
Reply | ~100%

Okay, here is my list. What is % leaf remaining for each of these?
1. CNCCC(Oc1ccc(C(F)(F)F)cc1)c1ccccc1 (centres unmarked)
2. CN(C)CCC=C1c2ccccc2CCc2ccccc21

Reply |
1. ~85%
2. ~100%
